Test system: Solanum nigrum (SOLNI)
Method Description: Pre-emergence biological efficacy, glasshouse pot test
Format: in vivo
Condition Info: 312 h, pre-emergence, rate 1,000 g/ha, evaluated after 13 days (100=total damage to plant; 0=no damage), read-out: Percentage damage caused to weed species, SOLNI
Measured Endpoint: pest or weed control at 1000 g/ha (%)
Entry rule: numbers only, all in %.

Some molecules with recorded pest or weed control at 1000 g/ha:
[[record]]
molecule = "COC(=O)c1nc(C2CC2)nc(N(C)CCc2ccccn2)c1Cl"
subject_of_test = "Solanum nigrum (SOLNI)"
observed_result = 70

[[record]]
molecule = "COC(=O)c1nc(-c2ccc(Cl)c(OC)c2)nc(NCc2ccco2)c1Cl"
subject_of_test = "Solanum nigrum (SOLNI)"
observed_result = 90

[[record]]
molecule = "COC(=O)c1nc(-c2cccc(OC)c2F)nc(NCc2ccco2)c1Cl"
subject_of_test = "Solanum nigrum (SOLNI)"
observed_result = 30


Quick check: pest or weed control at 1000 g/ha on Solanum nigrum (SOLNI), item COC(=O)c1nc(-c2ccc(Cl)c([N+](=O)[O-])c2)nc(NCc2ccco2)c1Cl ?
0

Likewise for COC(=O)c1nc(-c2ccc(F)cc2)nc(NCc2ccco2)c1Cl ?
20

Likewise for C=CCN(Cc1ccc(Cl)s1)c1nc(C2CC2)nc(C(=O)OC)c1Cl ?
0

Likewise for COC(=O)c1nc(-c2ccc(OC)c(Cl)c2)nc(NCc2ccco2)c1Cl ?
0

Likewise for COC(=O)c1nc(Cl)nc(NCC2CC2)c1Cl ?
10

Likewise for COC(=O)c1nc(-c2ccc(C(F)(F)F)c(Cl)c2)nc(NCc2ccco2)c1Cl ?
20

Likewise for C=Cc1c(NCc2ccco2)nc(-c2ccc(Cl)c(OC)c2F)nc1C(=O)OC ?
100

Likewise for CCN(Cc1ccc(C)o1)c1nc(C2CC2)nc(C(=O)OC)c1Cl ?
80

Likewise for CCCN(Cc1ccccc1)c1nc(C2CC2)nc(C(=O)OC)c1Cl ?
70

Likewise for CCCOC(=O)c1nc(C2CC2)nc(NCc2ccco2)c1Cl ?
100

Likewise for C=CCCN(Cc1ccccc1)c1nc(C2CC2)nc(C(=O)OC)c1Cl ?
0

Likewise for CCCN(Cc1ccc(C)cc1)c1nc(C2CC2)nc(C(=O)OC)c1Cl ?
70

Likewise for COC(=O)c1nc(C2CC2)nc(N(C)Cc2ccccc2F)c1Cl ?
70

Likewise for CCN(Cc1ccc(Br)s1)c1nc(C2CC2)nc(C(=O)OC)c1Cl ?
10

Likewise for COC(=O)c1nc(C2CC2)nc(N(C)Cc2nonc2C)c1Cl ?
40

Likewise for COC(=O)c1nc(C2CC2)nc(N(C)Cc2cccc(OC)c2)c1Cl ?
40
